Tested on: A549
Experiment: NCI tumour cell line growth inhibition, 48 h
Calls of active or inactive are those of the source. Cut-off read from the data, not from the text of the source: active = GI50 up to about 1.1 µM and inactive = higher.
Valid outcomes are listed here; reply with one: 1 = active, 0 = inactive

Solved entries:
>  <molecule>
CCCCCCCCCCCCCCCCOCC(CCl)OP(=O)(O)OP(=O)(O)OCC1OC(n2ccc(N)nc2=O)C(O)C1O (configuration not stated)

>  <label>
0

$$$$
>  <molecule>
N#CCCN(CCC#N)c1ccc(C(=N/c2ccc(F)cc2)/N=N/c2ccccc2)cc1

>  <label>
0

$$$$
>  <molecule>
CC(C)(C)c1cc(Oc2ccc(C#N)c(C#N)c2)cc(C(C)(C)C)c1

>  <label>
0

$$$$
>  <molecule>
Cc1cc(N(CCC#N)CCC#N)ccc1/C=C(/NC(=O)/C=C/c1ccccc1)C(N)=O

>  <label>
0

$$$$
>  <molecule>
Clc1ccc(-c2nn3c(COc4ccc(OCc5nnc6sc(-c7ccc(Cl)cc7)nn56)c(Cl)c4)nnc3s2)cc1

>  <label>
0

$$$$

Q: Call for entry `CN(C)CCNC(=O)c1cccc2nc3c(ccc4ccccc43)nc12` :
Ans: 0

Q: Name the outcome recorded for `O=C1OCCC1(Cc1ccc(Cl)cc1)Cc1ccc(Cl)cc1` in the assay.
Ans: 0

Q: Write down the call the test reported for this molecule. Item: `CCOc1ccncc1[N+](=O)[O-]`
Ans: 0

Q: Short answer needed: outcome of this test for `Cc1cc(C)c(/C=C(\C(=C/c2c(C)cc(C)cc2C)[N+](=O)[O-])[N+](=O)[O-])c(C)c1` ?
Ans: 0

Q: Could you kindly confirm the outcome this assay logged for CSc1ncc2c(n1)-c1ccccc1OC2N1CCOCC1 (configuration not stated) ?
Ans: 0

Q: Recorded test call requested for `CC1=C(C#N)S(=O)(=O)c2c(oc(C)c2C)N1`
Ans: 0

----------
System: SK-OV-3
Experiment: NCI tumour cell line growth inhibition, 48 h
Calls of active or inactive are those of the source. Rule as the data show it: active = GI50 up to about 1.1 µM and inactive = higher.
assay-readout: GI50

Worked set:
>  <molecule>
CC(C)=CC1C[C@H](C2CC=C3C2(C)CCC2[C@@]3(C)C(=O)CC3[C@]2(C)C=CC(=O)[C@]3(C)CO)CO1 (stereo not given in full)

>  <test-result>
16.6 µM (inactive)

$$$$
>  <molecule>
O=C1Nc2ccccc2/C1=N/NC(=O)C(O)(c1ccccc1)c1ccccc1

>  <test-result>
22.9 µM (inactive)

$$$$
>  <molecule>
C[Si](C)(c1ccccc1)[C@H]1CCCC=C1CCNC1c2ccccc2CCc2ccccc21

>  <test-result>
> 100 µM (inactive)

$$$$
>  <molecule>
COC(=O)c1cc2c3c(ccc2[nH]1)N(C(=O)c1cc2cc(OC)c(OC)c(OC)c2[nH]1)CC3CCl (stereo not given)

>  <test-result>
> 100 µM (inactive)

$$$$
>  <molecule>
C[C@@H](NC1CCC[C@H]1O)c1ccccc1 (stereo not given in full)

>  <test-result>
> 100 µM (inactive)

$$$$
>  <molecule>
Cc1nc(O)nc2nc3ccc(Cl)cc3c(NC(C)(CO)CO)c12

>  <test-result>
36.9 µM (inactive)

$$$$
>  <molecule>
Clc1ccc(CCN2CCOCC2)c(Cl)c1

>  <test-result>
> 100 µM (inactive)

$$$$
>  <molecule>
COC(=O)c1cc(/C=C2\Cc3cc4c(cc3C2=O)CCC4)cc2c1CCC2

>  <test-result>
> 100 µM (inactive)

$$$$

Q: Provide only the value of recorded GI50 for `Oc1ccc[n+](Cc2ccccc2)c1`
Ans: > 100 µM (inactive)

Q: Annotate the molecule `C=CC(=O)Nc1ccccc1CC(c1c[nH]c2ccccc12)c1c[nH]c2ccccc12` with its measured GI50.
Ans: 19.8 µM (inactive)
